Origin of the recorded values: patent US10150764B2

assay_target: EZH2 Y641F mutant (PRC2 enzyme) (Homo sapiens (Human), UniProt Q15910, Y641F)
Sequence (Q15910 whole entry Y641F): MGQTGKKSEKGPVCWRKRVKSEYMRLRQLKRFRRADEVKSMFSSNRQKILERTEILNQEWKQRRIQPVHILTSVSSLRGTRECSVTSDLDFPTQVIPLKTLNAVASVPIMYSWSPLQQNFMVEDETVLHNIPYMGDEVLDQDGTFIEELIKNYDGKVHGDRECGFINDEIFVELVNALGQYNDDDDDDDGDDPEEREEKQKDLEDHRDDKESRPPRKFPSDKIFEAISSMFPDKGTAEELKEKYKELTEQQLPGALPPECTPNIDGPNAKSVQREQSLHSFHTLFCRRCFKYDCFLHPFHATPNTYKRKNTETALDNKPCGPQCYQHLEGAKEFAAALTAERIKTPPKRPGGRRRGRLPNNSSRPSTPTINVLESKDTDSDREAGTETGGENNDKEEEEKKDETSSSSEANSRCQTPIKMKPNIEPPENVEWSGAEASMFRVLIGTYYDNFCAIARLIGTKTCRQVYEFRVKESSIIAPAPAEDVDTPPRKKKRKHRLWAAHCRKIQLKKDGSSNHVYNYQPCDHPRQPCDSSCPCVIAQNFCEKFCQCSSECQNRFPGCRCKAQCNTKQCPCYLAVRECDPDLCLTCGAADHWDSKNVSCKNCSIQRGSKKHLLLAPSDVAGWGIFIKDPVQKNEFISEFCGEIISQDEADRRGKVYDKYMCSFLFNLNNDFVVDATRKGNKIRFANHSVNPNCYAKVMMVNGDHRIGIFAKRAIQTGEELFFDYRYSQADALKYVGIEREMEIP
Sequence (O75530 whole entry partner): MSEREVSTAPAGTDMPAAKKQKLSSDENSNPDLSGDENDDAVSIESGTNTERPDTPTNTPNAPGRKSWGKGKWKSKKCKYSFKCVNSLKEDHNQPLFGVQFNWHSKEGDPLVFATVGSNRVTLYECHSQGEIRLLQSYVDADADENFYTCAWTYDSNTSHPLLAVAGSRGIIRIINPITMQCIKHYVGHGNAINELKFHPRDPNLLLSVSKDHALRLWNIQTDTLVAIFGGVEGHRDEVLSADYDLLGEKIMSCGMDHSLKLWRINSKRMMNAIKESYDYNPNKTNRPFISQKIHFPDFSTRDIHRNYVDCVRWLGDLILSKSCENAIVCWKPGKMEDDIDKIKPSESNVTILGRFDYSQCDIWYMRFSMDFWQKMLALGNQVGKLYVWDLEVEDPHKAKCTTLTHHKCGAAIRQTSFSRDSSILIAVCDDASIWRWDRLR
Sequence (Q15022 whole entry partner): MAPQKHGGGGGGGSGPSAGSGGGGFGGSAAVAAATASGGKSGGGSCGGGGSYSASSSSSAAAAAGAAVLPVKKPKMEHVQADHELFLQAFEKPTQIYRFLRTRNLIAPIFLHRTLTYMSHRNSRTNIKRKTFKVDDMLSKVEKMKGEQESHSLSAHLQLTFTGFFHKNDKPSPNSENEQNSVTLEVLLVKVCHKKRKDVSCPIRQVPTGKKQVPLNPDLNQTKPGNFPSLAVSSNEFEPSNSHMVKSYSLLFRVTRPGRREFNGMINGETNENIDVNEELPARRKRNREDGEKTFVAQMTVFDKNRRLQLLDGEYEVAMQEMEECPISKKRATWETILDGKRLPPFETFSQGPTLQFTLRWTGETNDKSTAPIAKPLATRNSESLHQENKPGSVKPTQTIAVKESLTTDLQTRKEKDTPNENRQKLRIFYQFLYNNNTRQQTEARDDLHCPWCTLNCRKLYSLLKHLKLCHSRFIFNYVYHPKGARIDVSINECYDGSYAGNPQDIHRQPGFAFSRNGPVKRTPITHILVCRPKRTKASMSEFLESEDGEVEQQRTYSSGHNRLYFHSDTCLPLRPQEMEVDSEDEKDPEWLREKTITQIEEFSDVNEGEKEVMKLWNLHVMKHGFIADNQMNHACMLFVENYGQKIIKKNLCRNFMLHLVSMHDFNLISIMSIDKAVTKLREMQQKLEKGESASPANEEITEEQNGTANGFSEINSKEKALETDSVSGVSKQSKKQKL
Sequence (Q09028 whole entry partner): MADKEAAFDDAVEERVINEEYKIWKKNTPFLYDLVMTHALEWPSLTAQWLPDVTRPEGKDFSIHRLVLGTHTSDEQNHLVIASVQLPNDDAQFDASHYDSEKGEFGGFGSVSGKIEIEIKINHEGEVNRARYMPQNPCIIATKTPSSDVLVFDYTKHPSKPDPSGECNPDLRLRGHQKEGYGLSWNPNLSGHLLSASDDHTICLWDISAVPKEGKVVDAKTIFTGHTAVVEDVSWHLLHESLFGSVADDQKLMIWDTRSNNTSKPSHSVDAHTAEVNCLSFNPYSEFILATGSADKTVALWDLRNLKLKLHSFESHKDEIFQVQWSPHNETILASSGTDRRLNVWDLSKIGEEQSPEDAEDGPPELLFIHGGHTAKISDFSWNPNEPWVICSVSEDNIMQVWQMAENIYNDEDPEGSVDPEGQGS
procedure_summary: PRC2 enzyme assay on peptide substrate, EZH2 Y641F mutant (H3K27me2 peptide, 3H-SAM Flashplate)
Type: biochemical
measurement_parameters: Y641F mutant PRC2 4 nM
pIC50: −log10 of the molar value.
Here the recorded pIC50 is given for each entry.

// solved cases for pIC50 follow
CCN(c1cc(Cl)cc(C(=O)NCc2c(C(F)(F)F)[nH]n(C)c2=O)c1C)[C@H]1CC[C@H](N(C)C)CC1: < 4.30
CCN(c1cc(Cl)cc(C(=O)NCc2c(OC)nn(C)c2C)c1C)C1CCN(CCOC)CC1: < 4.30
CCN(c1cc(Cl)cc(C(=O)NCc2c(N3CCCCC3)nn(C)c2OC)c1C)[C@H]1CC[C@H](N(C)C)CC1: < 4.30

What measured pIC50 goes with CCO[C@@H]1COC[C@H]1N(CC)c1cc(Cl)cc(C(=O)NCc2c(C)[nH]n(C)c2=O)c1C (relative stereo) ?
< 4.30
